The measurements presented in this section are drawn from patent US10844058B2.

assay: Solubility of Formula I Form I in solvents, gravimetric analysis of mother liquors (Example 1); type: physicochemical; settings: 88 °C, organic solvent or mixture, thermodynamic from solid; 1-propanol (boiling point 98); 10° C. below reflux; read-out: Solubility at high temperature

- compound: "COc1cc2c(cc1OC)[C@H]1C[C@@H](OC(=O)[C@@H](N)C(C)C)[C@H](CC(C)C)CN1CC2.Cc1ccc(S(=O)(=O)O)cc1.Cc1ccc(S(=O)(=O)O)cc1 [Form I]"
  solubility: "160 mg/mL"

====

test: Solubility of Formula I Form I in solvents, gravimetric analysis of mother liquors (Example 1); type: physicochemical; conditions: 71 °C, organic solvent or mixture, thermodynamic from solid; Acetonitrile (boiling point 81); 10° C. below reflux; read-out: Solubility at high temperature

- compound: "COc1cc2c(cc1OC)[C@H]1C[C@@H](OC(=O)[C@@H](N)C(C)C)[C@H](CC(C)C)CN1CC2.Cc1ccc(S(=O)(=O)O)cc1.Cc1ccc(S(=O)(=O)O)cc1 [Form I]"
  solubility / mg/mL: 48
